Molecular target: Vascular endothelial growth factor receptor 2 (Homo sapiens)
Sequence (P35968 whole entry): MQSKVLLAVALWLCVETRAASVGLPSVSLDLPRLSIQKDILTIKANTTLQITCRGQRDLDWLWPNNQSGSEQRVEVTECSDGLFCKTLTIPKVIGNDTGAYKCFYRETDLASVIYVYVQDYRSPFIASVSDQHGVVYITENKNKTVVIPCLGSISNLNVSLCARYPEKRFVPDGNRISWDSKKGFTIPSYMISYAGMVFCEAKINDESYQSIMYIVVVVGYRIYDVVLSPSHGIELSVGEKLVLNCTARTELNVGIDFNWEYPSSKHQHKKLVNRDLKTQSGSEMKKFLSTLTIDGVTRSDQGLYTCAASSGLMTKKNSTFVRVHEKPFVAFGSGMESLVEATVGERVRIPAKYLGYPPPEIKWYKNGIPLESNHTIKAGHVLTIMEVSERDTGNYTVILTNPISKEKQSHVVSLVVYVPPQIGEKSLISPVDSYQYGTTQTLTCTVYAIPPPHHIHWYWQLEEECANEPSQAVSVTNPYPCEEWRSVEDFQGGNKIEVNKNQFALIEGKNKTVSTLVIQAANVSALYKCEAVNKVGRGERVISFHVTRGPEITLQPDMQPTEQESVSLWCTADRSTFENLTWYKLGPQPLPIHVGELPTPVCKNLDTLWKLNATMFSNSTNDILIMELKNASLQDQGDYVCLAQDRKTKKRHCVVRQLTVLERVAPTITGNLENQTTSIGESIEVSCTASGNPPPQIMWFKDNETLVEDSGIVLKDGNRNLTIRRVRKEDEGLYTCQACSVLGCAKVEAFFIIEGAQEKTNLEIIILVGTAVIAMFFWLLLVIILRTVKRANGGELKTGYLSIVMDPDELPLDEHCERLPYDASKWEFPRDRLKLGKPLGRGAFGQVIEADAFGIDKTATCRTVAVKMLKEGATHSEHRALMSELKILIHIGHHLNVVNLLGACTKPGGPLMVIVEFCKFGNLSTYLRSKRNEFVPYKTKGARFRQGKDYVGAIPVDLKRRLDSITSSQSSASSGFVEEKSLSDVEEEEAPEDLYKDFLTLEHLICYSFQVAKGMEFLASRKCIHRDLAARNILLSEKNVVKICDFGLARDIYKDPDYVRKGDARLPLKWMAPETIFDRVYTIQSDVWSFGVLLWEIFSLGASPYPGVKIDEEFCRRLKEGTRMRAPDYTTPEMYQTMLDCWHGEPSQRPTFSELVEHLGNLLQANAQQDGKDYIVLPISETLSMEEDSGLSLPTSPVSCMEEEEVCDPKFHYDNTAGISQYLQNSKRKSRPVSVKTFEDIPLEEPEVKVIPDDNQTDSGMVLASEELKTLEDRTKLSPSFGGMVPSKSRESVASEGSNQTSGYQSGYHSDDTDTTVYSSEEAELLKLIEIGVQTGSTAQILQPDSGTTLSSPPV
reported.property: IC50 (µM)
A number alone suffices; assume µM.

The molecule CN1CCC(Nc2ccc(C(=O)Nc3cc(-c4cc(C#N)cs4)n[nH]3)cc2)CC1 showed IC50 equal to 6.26

###

Biological target: Mast/stem cell growth factor receptor Kit (Homo sapiens, UniProt P10721)
Sequence (P10721 whole entry, the tested form may be a part): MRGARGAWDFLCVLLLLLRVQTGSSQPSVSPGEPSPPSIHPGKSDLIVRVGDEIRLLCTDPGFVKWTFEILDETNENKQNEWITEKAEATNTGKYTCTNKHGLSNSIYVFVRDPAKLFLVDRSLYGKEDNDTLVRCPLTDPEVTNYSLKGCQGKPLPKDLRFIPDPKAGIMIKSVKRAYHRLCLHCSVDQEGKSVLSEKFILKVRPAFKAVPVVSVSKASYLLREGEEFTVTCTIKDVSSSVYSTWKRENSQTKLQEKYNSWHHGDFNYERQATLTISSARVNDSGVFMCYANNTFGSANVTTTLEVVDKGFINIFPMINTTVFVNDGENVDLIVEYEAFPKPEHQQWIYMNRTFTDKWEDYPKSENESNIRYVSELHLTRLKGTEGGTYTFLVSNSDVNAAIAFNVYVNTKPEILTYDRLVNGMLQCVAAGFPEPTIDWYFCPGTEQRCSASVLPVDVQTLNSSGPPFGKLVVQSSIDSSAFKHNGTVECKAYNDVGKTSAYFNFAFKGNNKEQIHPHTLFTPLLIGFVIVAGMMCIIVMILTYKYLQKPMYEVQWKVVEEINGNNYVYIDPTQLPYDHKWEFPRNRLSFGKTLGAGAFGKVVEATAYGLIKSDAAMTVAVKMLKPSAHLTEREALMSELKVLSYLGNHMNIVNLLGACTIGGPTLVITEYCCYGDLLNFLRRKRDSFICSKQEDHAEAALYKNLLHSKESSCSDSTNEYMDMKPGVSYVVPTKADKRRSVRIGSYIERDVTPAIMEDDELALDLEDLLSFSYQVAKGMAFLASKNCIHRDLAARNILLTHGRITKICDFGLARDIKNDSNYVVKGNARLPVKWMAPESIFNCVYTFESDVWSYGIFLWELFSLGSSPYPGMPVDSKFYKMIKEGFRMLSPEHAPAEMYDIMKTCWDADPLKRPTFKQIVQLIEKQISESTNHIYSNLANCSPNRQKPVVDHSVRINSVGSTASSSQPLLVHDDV
Test: Binding affinity to wild-type human partial length KIT (I571 to D952 residues) expressed in bacterial expression system after 60 mins by Kinomescan method
reported.property: pKd
pKd is defined as minus the log10 of a concentration measured in mol/L.

Record CN1CCC(Nc2ccc(C(=O)Nc3cc(-c4cc(C#N)cs4)n[nH]3)cc2)CC1 , field pKd: 8.66
